Reference for the values: the supplement of paper PMC4683952

# Tested on: Lgr5 (MarsCy1-Lgr5-EGFP, U2OS)
# PROTOCOL SUMMARY: cell-surface Lgr5 expression (SCi1 fluorescence, background-subtracted) relative to WT DMSO (fold of DMSO control); higher = more Lgr5 at the plasma membrane, active = hit call of the paper
# CONDITION SET: U2OS MarsCy1-Lgr5-EGFP stable; treatment time: overnight; 16 µM; library: Johns Hopkins Clinical Compound Library
Counter-ions that a name gives are not always drawn. Hit rate of the full screen: of about 1,200 compounds, about 50 (4%) showed activity. The sample as a whole holds a higher share of actives than the screen did.
cell-surface Lgr5 expression by entry:
ATTRIBUTE MEASURED: cell-surface Lgr5 expression

• O=C(O[C@@H]1Cc2c(O)cc(O)cc2O[C@@H]1c1ccc(O)c(O)c1)c1cc(O)c(O)c(O)c1 [Epicatechin gallate (-)] = 1.14
• CCN1C(=CC=Cc2ccc3ccccc3[n+]2CC)C=Cc2ccccc21 [Quinaldine blue (Pinacyanol chloride)] = 1.53
• O.O.O.O.O.O.[Cl-].[Cl-].[Sr+2] [Strontium chloride hexahydrate] = 1.29
• Nc1c(Br)cc(Br)cc1CN[C@H]1CC[C@H](O)CC1 [Ambroxol hydrochloride] = 1.54
